# ASSAY SYSTEM: Metabotropic glutamate receptor 2 (Homo sapiens, UniProt Q14416)
# Sequence (Q14416 whole entry): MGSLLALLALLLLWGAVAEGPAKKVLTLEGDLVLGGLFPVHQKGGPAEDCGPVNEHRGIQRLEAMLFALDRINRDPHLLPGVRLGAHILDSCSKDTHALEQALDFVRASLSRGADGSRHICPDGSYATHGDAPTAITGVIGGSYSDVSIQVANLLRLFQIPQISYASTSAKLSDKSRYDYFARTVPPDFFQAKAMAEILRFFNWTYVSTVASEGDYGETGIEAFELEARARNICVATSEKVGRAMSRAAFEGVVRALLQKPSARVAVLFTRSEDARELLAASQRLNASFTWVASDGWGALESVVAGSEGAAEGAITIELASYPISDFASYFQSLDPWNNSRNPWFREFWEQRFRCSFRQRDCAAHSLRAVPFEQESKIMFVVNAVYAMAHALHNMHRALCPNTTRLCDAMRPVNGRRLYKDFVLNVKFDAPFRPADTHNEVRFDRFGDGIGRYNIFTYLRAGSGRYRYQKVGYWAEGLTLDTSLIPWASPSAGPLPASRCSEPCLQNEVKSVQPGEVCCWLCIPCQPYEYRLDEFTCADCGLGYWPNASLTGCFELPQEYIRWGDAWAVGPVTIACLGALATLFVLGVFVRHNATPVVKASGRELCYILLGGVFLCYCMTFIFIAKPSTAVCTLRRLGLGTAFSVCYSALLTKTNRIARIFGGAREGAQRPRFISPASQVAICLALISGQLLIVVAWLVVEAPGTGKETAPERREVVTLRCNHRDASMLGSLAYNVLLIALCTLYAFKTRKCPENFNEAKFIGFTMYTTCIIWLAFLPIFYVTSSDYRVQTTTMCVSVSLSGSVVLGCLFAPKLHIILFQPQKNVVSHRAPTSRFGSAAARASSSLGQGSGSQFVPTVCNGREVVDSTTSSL
# PROTOCOL TEXT: [35S]GTPgammaS Binding Assay: The frozen cell membrane fraction prepared as described above was thawed before use, and the resultant was diluted with a buffer for a binding assay (final concentrations: 20 mM HEPES, 100 mM NaCl, 1 mM MgCl2, 3 uM GDP, 300 ug/mL saponin, 0.1% BSA). The compound of each example was added to a cell membrane fraction containing 1.8 to 3 ug/assay of membrane protein on a plate, followed by incubation at room temperature for 30 minutes. Thereafter, with glutamic acid (in a final concentration of 10 uM) added thereto, incubation was performed at room temperature for 15 minutes, and thereafter, [35S]GTPγS (in a final concentration of 0.8 kBq) and 588 ug WGA-SPA beads were added thereto, followed by incubation at room temperature for 1 hour. After the incubation, the plate was subjected to the centrifugal separation at 2,500 rpm and room temperature, and then, membrane cell binding radioactivity was measured with a top count. A [35S]GTPγS binding amount obtained in the presence of glutamic acid was defined as specific binding. On the basis of ratios of inhibiting the specific binding at various concentrations of the compounds of the respective examples, inhibition curves were obtained. Concentrations of the compounds of the respective examples at which the specific [35S]GTPγS binding amount was suppressed by 50% (IC50 values) were calculated on the basis of the inhibition curves.
REPORTED PROPERTY: pIC50
# pIC50 = -log10(concentration in molar units)

Form field: reported pIC50 of `CCc1ccc(-c2nc(-c3cc(C)nc(C)c3)c3n2C[C@@H](C)OCC3)cc1OC`
8.38
